target: T1, EGFR on the surface of human tumour cells (A431, H292) (human, UniProt P00533 25-1210)
T1 construct: whole, on cells; also called EGF receptor
measured.parameter: pIC50
Bear in mind: pIC50 is minus log10 of a mol/L concentration; give just that figure.

binder	pIC50
E4-GS10-I1 pegylated, His-tagged (designed binder, 40 kDa branched PEG on the Cys of the C-terminal Cys tail, also called E4-GS10-I1 (with Peg)) MGVSDVPRDLEVVAATPTSLLISWHERDGSRQYYRITYGETGGNSPVQEFTVPGGVRTATISGLKPGVDYTITVYAVTDYFNPTTHEYIYQTTPISINYRTEIDKGSGSGSGSGSGSGSGSGSGSVSDVPRDLEVVAATPTSLLISWSARLKVARYYRITYGETGGNSPVQEFTVPKNVYTATISGLKPGVDYTITVYAVTRFRDYQPISINYRTEIDKPCQHHHHHH	7.71
E96-GS10-I1 pegylated (designed binder, Cys of the C-terminal Cys tail conjugated to 40 kDa branched PEG) E/I tandem 10Fn3 chain: MGVSDVPRDLEVVAATPTSLLISWASNRGTYQYYRITYGETGGNSPVQEFTVPGGVSTATISGLKPGVDYTITVYAVTDAFNPTTHEYNYFTTPISINYRTEIDKGSGSGSGSGSGSGSGSGSGSVSDVPRDLEVVAATPTSLLISWSARLKVARYYRITYGETGGNSPVQEFTVPKNVYTATISGLKPGVDYTITVYAVTRFRDYQPISINYRTEIDKPCQHHHHHH	7.36

*Q* Item I1-GS10-E4 pegylated, His-tagged (designed binder, 40 kDa branched PEG on the Cys of the C-terminal Cys tail) MGVSDVPRDLEVVAATPTSLLISWSARLKVARYYRITYGETGGNSPVQEFTVPKNVYTATISGLKPGVDYTITVYAVTRFRDYQPISINYRTEIDKGSGSGSGSGSGSGSGSGSGSVSDVPRDLEVVAATPTSLLISWHERDGSRQYYRITYGETGGNSPVQEFTVPGGVRTATISGLKPGVDYTITVYAVTDYFNPTTHEYIYQTTPISINYRTEIDKPCQHHHHHH has what recorded pIC50?
*A* 7.42

*Q* Item E90-GS10-I1 pegylated (designed binder, Cys of the C-terminal Cys tail conjugated to 40 kDa branched PEG) E/I tandem 10Fn3 chain: MGVSDVPRDLEVVAATPTSLLISWYWEGLPYQYYRITYGETGGNSPVQEFTVPRDVNTATISGLKPGVDYTITVYAVTDWYNPDTHEYIYHTIPISINYRTEIDKGSGSGSGSGSGSGSGSGSGSVSDVPRDLEVVAATPTSLLISWSARLKVARYYRITYGETGGNSPVQEFTVPKNVYTATISGLKPGVDYTITVYAVTRFRDYQPISINYRTEIDKPCQHHHHHH has what recorded pIC50?
*A* 7.16

*Q* Item E3-GS10-I1 pegylated, His-tagged (designed binder, 40 kDa branched PEG on the Cys of the C-terminal Cys tail, also called E3-GS10-I1-Cys (with his)) MGVSDVPRDLEVVAATPTSLLISWLPGKLRYQYYRITYGETGGNSPVQEFTVPHDLRTATISGLKPGVDYTITVYAVTNMMHVEYSEYPISINYRTEIDKGSGSGSGSGSGSGSGSGSGSVSDVPRDLEVVAATPTSLLISWSARLKVARYYRITYGETGGNSPVQEFTVPKNVYTATISGLKPGVDYTITVYAVTRFRDYQPISINYRTEIDKPCQHHHHHH has what recorded pIC50?
*A* 7.05

Value source: patent US20180037631A1
